Assay: Excitation and fluorescence wavelengths by fluorescence spectrometer FL4500
Assay type: physicochemical
Conditions: aqueous solution: 10 mg/mL DMSO solution diluted to 1/500 with purified water (Examples 1 to 94); in nm (unit assumed)
Experimental readout: λex (excitation wavelength)

O=C(O)CN1/C(=C/C2=C(Cl)C(=C/c3sc4ccccc4[n+]3CC(=O)O)/CCC2)Sc2ccccc21.[Br-] = 635
O=C(O)C[n+]1c(/C=C/c2ccc3c(c2)C2CCCC2N3c2ccc(C=C(c3ccccc3)c3ccccc3)cc2)sc2ccccc21.[Br-] (stereo not shown) = 610
CCCCNc1ccc2c3c(cccc13)C(=O)N(CCCC)C2=O = 466
CCN1C=C/C(=C\C=C\c2cc[n+](CC)c3ccccc23)c2ccccc21.[I-] = 679
O=C(O)C[n+]1c(/C=C/c2ccc3c(c2)C2CCCC2N3Cc2ccccc2)sc2ccccc21.[Br-] (stereo not shown) = 566
CN(C)c1ccc(/C=C/C=C/c2sc3ccccc3[n+]2CC(=O)O)cc1.[Br-] = 609
CC/N=c1\cc2oc3cc(NCC)c(C)cc3c(-c3ccccc3C(=O)CC)c-2cc1C = 528
O=C(O)CCN1/C(=C/C2=C(Cl)C(=C/c3sc4ccccc4[n+]3CCC(=O)O)/CCC2)Sc2ccccc21.[I-] = 495
CCN1c2ccc(/C=C3/SC(=S)N(CCC(=O)O)C3=O)cc2C2CCCC21 (stereo not shown) = 576
CCCCN1C(=O)/C(=c2\s/c(=C/c3ccc4c(c3)C3CCCC3N4c3ccccc3)c(=O)n2CC(=O)OCC)SC1=S (stereo not shown) = 653
COc1ccc(N2c3ccc(/C=C/C4=[N+](CCC(=O)O)c5ccccc5C4(C)C)cc3C3CCCC32)cc1.[I-] (stereo not shown) = 592
CCN(CC)c1ccc2cc(-c3nc4ccccc4s3)c(=O)oc2c1 = 469
COc1ccc(N2c3ccc(/C=C4\SC(=S)N(CC(=O)O)C4=O)cc3[C@@H]3CCC[C@@H]32)cc1 = 571
CCN1C=C/C(=C\C=C\c2oc3ccccc3[n+]2CC)c2ccccc21.[I-] = 571
COc1ccc(N2c3ccc(/C=C4\Oc5ccc(I)cc5C4=O)cc3C3CCCC32)cc1 (stereo not shown) = 530
C=CCN1C(=O)S/C(=c2/s/c(=C/c3ccc4c(c3)C3CCCC3N4c3ccccc3)c(=O)n2CC(=O)OCC)C1=O (stereo not shown) = 580

* * *

System: intraocular tissue (retinal tissue incl. photoreceptor cell layer, vitreous body) of Zebrafish 7-day-old embryo
Experiment: Staining of intraocular tissue of Zebrafish fry by exposure to staining liquid, ocular tissue section observed by confocal microscope
Assay type: in vivo
Conditions: Zebrafish 7 dpf fry, 1 μg/mL, 1 hour exposure, fixed ocular section
Experimental readout: Staining ability

Answered examples (8):
C=CCN1C(=O)/C(=c2\s/c(=C/c3ccc4c(c3)C3CCCC3N4c3ccc(OC)cc3)c(=O)n2CC(=O)O)SC1=S (centres unmarked) = ∘
COc1ccc(N2c3ccc(/C=C/c4sc5ccccc5[n+]4CCC(=O)O)cc3C3CCCC32)cc1 (centres unmarked) = ++
CCCCCCCCN1C(=O)S/C(=c2/s/c(=C/c3ccc4c(c3)C3CCCC3N4c3ccc(OC)cc3)c(=O)n2CC(=O)OCC)C1=O (centres unmarked) = ++
CC[n+]1c(C=C2SCC(=O)N2c2ccccc2)sc2ccccc21.[Br-] = ++
O=C(O)CN1C(=O)/C(=C/c2ccc3c(c2)[C@@H]2CCC[C@@H]2N3c2ccc(C=C(c3ccccc3)c3ccccc3)cc2)SC1=S = ++
CCN1C(=O)/C(=c2\s/c(=C/c3cc(Br)c4c(c3)C3CCCC3N4Cc3ccccc3)c(=O)n2CC(=O)O)SC1=S (centres unmarked) = ++
COC(=O)CCc1ccc(Oc2cc(O)c3c(c2N)C(=O)c2ccccc2C3=O)c(C)c1 = ∘
CCN(CC)c1ccc2c(-c3ccc(S(=O)(=O)NCCC(=O)O)cc3S(=O)(=O)O)c3ccc(=[N+](CC)CC)cc-3oc2c1.[Na+] = ++

Shifting focus to the compound that follows.
Param item = C=CCN1C(=O)S/C(=c2/s/c(=C/c3ccc4c(c3)C3CCCC3N4c3ccccc3)c(=O)n2CC(=O)OCC)C1=O (centres unmarked) ; retrieve measured Staining ability. ++

* * *

Test: Excitation and fluorescence wavelengths by fluorescence spectrometer FL4500
Format: physicochemical
Conditions: aqueous solution: 10 mg/mL DMSO solution diluted to 1/500 with purified water (Examples 1 to 94); in nm (unit assumed)
Experimental readout: λex (excitation wavelength)

CC1(C)C(/C=C/c2ccc3c(c2)C2CCCC2N3c2ccc(C=C(c3ccccc3)c3ccccc3)cc2)=[N+](CCC(=O)O)c2ccc3ccccc3c21 (stereo not shown) = 674
C[n+]1c(C=c2sc(=Cc3ccc4c(c3)C3CCCC3N4c3ccc(C=C(c4ccccc4)c4ccccc4)cc3)c(=O)n2CC(=O)O)sc2ccccc21.[Br-] (stereo not shown) = 560
CSc1cccc(N2c3ccc(/C=C4/SC(=S)N(CC(=O)O)C4=O)cc3C3CCCC32)c1 (stereo not shown) = 520
COc1ccc2cc(N3c4ccc(/C=C5\C(=O)N(c6ccc(C(=O)O)cc6)N=C5C)cc4C4CCCC43)ccc2c1 (stereo not shown) = 569
CCN1C(=O)S/C(=c2/s/c(=C/c3ccc4c(c3)C3CCCC3N4c3ccccc3)c(=O)n2CC(=O)O)C1=O (stereo not shown) = 502
CCN1C(=O)/C(=c2\s/c(=C/c3ccc4c(c3)[C@@H]3CCC[C@@H]3N4c3ccc(OC)cc3)c(=O)n2CC(=O)O)SC1=S = 582
CCN1C(=O)/C(=c2\s/c(=C/c3cc(Br)c4c(c3)C3CCCC3N4Cc3ccccc3)c(=O)n2CC(=O)O)SC1=S (stereo not shown) = 548
C=CCN1C(=O)/C(=c2\s/c(=C/c3ccc4c(c3)C3CCCC3N4c3ccc(OC)cc3)c(=O)n2CC(=O)O)SC1=S (stereo not shown) = 530
CCOC(=O)c1cc(/C=C/C=C/c2sc3ccccc3[n+]2CC(=O)O)c2cccccc1-2.[Br-] = 450
O=C(O)C[n+]1c(/C=C/c2ccc3c(c2)C2CCCC2N3c2ccccc2)sc2ccccc21.[Br-] (stereo not shown) = 545
O=C(O)C[n+]1c(/C=C/c2ccc3c(c2)C2CCCC2N3c2ccc(C=C(c3ccccc3)c3ccccc3)cc2)oc2ccccc21.[Br-] (stereo not shown) = 570
CCN1C(=O)/C(=c2\s/c(=C/c3ccc4c(c3)C3CCCC3N4CC)c(=O)n2CC)SC1=S (stereo not shown) = 623
CCCCCCCCN1C(=O)S/C(=c2/s/c(=C/c3ccc4c(c3)C3CCCC3N4c3ccc(OC)cc3)c(=O)n2CC(=O)OCC)C1=O (stereo not shown) = 546

* * *

Tested on: intraocular tissue (retinal tissue incl. photoreceptor cell layer, vitreous body) of Zebrafish 7-day-old embryo
Assay: Staining of intraocular tissue of Zebrafish fry by exposure to staining liquid, ocular tissue section observed by confocal microscope
Assay type: in vivo
Details: Zebrafish 7 dpf fry, 1 μg/mL, 1 hour exposure, fixed ocular section
Experimental readout: Staining ability

CCOC(=O)Cn1c(=Cc2sc3ccccc3[n+]2C)sc(=Cc2ccc3c(c2)C2CCCC2N3c2ccc(C=C(c3ccccc3)c3ccccc3)cc2)c1=O.[Br-] (stereo not shown) = ++
CC1(C)c2ccccc2-c2ccc(N(c3ccccc3)c3ccc(/C=C4/SC(=S)N(CC(=O)O)C4=O)cc3)cc21 = ++
CCN1c2ccc(/C=C3/SC(=S)N(CCC(=O)O)C3=O)cc2C2CCCC21 (stereo not shown) = ++
CSc1ccc(N2c3ccc(/C=C4/SC(=S)N(CC(=O)O)C4=O)cc3C3CCCC32)cc1 (stereo not shown) = +++
COc1ccc(N2c3ccc(/C=c4/s/c(=C5/SC(=O)N(Cc6ccccc6)C5=O)n(CC(=O)O)c4=O)cc3C3CCCC32)cc1 (stereo not shown) = ++
CC1(C)CCN2CCC(C)(C)c3c2c1cc1cc(-c2nc4ccccc4s2)c(=O)oc31 = ++

Consider the additional compound presented here.
Would you mind telling me what Staining ability value was observed for `Cc1cccc(Nc2ccc3c4c(cc(=O)n3C)-c3ccccc3C(=O)c24)c1` ? ∘

* * *

Assay: Excitation and fluorescence wavelengths by fluorescence spectrometer FL4500
Format: physicochemical
Details: aqueous solution: 10 mg/mL DMSO solution diluted to 1/500 with purified water (Examples 1 to 94); in nm (unit assumed)
Experimental readout: λem (fluorescence wavelength)

CCN1C=C/C(=C\C=C\c2cc[n+](CC)c3ccccc23)c2ccccc21.[I-] [Compound 26] = 715
CCN(CC)c1ccc2cc(-c3nc4ccc(C)cc4o3)c(=O)oc2c1 [Compound 13] = 504
CC1(C)CCN2CCC(C)(C)c3c2c1cc1cc(-c2nc4ccccc4s2)c(=O)oc31 [Compound 8] = 592
O=C(O)CC[n+]1c(/C=C/c2ccc3c(c2)C2CCCC2N3c2ccc(C=C(c3ccccc3)c3ccccc3)cc2)sc2ccccc21.[I-] (stereo not drawn) [Compound 78] = 726
COc1ccc(N2c3ccc(/C=C/C4=[N+](CCC(=O)O)c5ccccc5C4(C)C)cc3C3CCCC32)cc1.[I-] (stereo not drawn) [Compound 71] = 671
CCOC(=O)CN1C(=O)/C(=C\c2ccc3c(c2)C2CCCC2N3c2ccccc2)SC1=S (stereo not drawn) [Compound 52] = 638
COc1ccc(N2c3ccc(/C=C/c4sc5ccccc5[n+]4CC(=O)O)cc3C3CCCC32)cc1.[Br-] (stereo not drawn) [Compound 60] = 677
CSc1ccc(N2c3ccc(/C=C4/SC(=S)N(CC(=O)O)C4=O)cc3C3CCCC32)cc1 (stereo not drawn) [Compound 66] = 636
C=CCN1C(=O)/C(=C2\S/C(=C/c3ccc4c(c3)C3CCCC3N4c3ccccc3)CN2CC(=O)O)SC1=S (stereo not drawn) [Compound 98] = 690
O=C(O)CN1C(=O)/C(=C2C=C/C(=C\c3ccc4c(c3)C3CCCC3N4c3ccccc3)C\2)SC1=S (stereo not drawn) [Compound 106] = 650
CC1(C)C(/C=C/c2ccc3c(c2)C2CCCC2N3c2ccc(C=C(c3ccccc3)c3ccccc3)cc2)=[N+](CCC(=O)O)c2ccc3ccccc3c21 (stereo not drawn) [Compound 76] = 724
CCCCCCCCN1C(=O)S/C(=c2/s/c(=C/c3ccc4c(c3)C3CCCC3N4c3ccc(OC)cc3)c(=O)n2CC(=O)OCC)C1=O (stereo not drawn) [Compound 58] = 676
CCC(/C=C1\Sc2ccccc2N1CC)=C\c1sc2ccccc2[n+]1CC.[I-] [Compound 20] = 567
COc1ccc(N2c3ccc(/C=C/c4sc5c6ccccc6ccc5[n+]4CCC(=O)O)cc3C3CCCC32)cc1.[I-] (stereo not drawn) [Compound 83] = 682
CCN1C(=O)/C(=c2\s/c(=C/c3ccc4c(c3)C3CCCC3N4CC)c(=O)n2CC)SC1=S (stereo not drawn) [Compound 86] = 671

Hello, the source for this data is patent US9764046B2, in case you need it.
